B1: Twister Ribozyme (parent)
chain: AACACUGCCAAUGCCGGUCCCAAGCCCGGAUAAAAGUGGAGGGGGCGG

Variants of: B1
Assay Remarks: self-cleavage, relative activity (ratio to wild type); higher = more cleavage; co-transcriptional
Grouping key: self-cleavage. Bins: low range = under 0.1, mid range = from 0.1 up to 0.2, high range = 0.2 and over

Mutation Spec	Cat
G28U G39U	mid range
C3G G41U	mid range
U31A	high range
A23C G39A	mid range
C5A C19G	low range
U12A G45C	high range
C8A A23U	low range
C8G C25U	mid range
C8A G16A	mid range
C5G C20A	low range
